Reported IC50 values are given for each entry in this list.
- Experimental system: Glycogen synthase kinase-3 beta (Homo sapiens)
- Sequence (P49841 whole entry): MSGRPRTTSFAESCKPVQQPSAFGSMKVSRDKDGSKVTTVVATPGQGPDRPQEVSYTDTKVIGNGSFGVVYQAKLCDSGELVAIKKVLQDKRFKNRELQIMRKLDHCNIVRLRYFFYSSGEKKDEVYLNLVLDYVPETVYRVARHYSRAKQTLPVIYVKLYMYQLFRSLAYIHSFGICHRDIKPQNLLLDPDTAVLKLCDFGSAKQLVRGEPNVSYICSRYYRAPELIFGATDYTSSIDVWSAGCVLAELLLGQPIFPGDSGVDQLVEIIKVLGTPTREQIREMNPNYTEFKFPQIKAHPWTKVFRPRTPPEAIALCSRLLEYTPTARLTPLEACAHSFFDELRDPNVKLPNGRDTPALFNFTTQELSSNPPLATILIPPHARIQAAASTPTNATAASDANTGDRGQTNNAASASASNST

Answered cases to consult:
>>> print(df.to_string())
                                   compound        observed
0  CC[C@]1(c2cccc(-c3cn(C)nc3C)c2)C2=CN=NC2NC2=C1C(=O)CC(C)(C)C2 (stereo partly drawn)       > 5000 nM
1  CC(C)Oc1ccc(S(=O)(=O)N2CCC3(CC2)C2=C(N=NC2)NC2=C3C(=O)CC(C)(C)C2)cc1        < 100 nM
2  CCC1(c2cccc(-c3cnn(C)c3)c2)C2=C(CC(C)(C)NC2=O)NC2N=NC(F)=C21 (stereo not drawn)  100 to 1000 nM
3  CC[C@@]1(c2cccc(C3CC3)c2)C2=CN=NC2NC2=C1C(=O)NC(C)(C)C2 (stereo partly drawn)       > 5000 nM
4  CC[C@]1(c2cccc(-c3cnn(-c4ccccc4)c3F)c2)C2=CN=NC2NC2=C1C(=O)NC(C)(C)C2 (stereo partly drawn)       > 5000 nM
5  CCC1(c2cccc(-c3cnn(C)c3)c2)C2=C(CC(C)(C)NC2=O)NC2N=NC(Cl)=C21 (stereo not drawn)        < 100 nM

Lab entry: Glycogen synthase kinase-3 beta (Homo sapiens) assay, compound CCC1(c2cccc(-c3ccnc(OC(F)F)c3)c2)C2=CN=NC2NC2=C1C(=O)CC(C)(C)C2 (stereo not drawn) , IC50 = 100 to 1000 nM

# IC50 measured on Glycogen synthase kinase-3 beta (Homo sapiens) for item CC1(C)CC(=O)C2=C(C1)NC1=C(CN=N1)C21COC2(CCC2)C1 (stereo not drawn) = 100 to 1000 nM

Entry CC[C@]1(c2cccc(C(F)(F)F)c2)C2=CN=NC2NC2=C1C(=O)N(c1cnsc1)CC2 (stereo partly drawn) under Glycogen synthase kinase-3 beta (Homo sapiens) had IC50 of 100 to 1000 nM

IC50 value, target or system Glycogen synthase kinase-3 beta (Homo sapiens), for CC[C@]1(c2cccc(OC)c2)C2=CN=NC2NC2=C1C(=O)CC(C)(C)C2 (stereo partly drawn) : > 5000 nM

# value of IC50, Glycogen synthase kinase-3 beta (Homo sapiens), item CC[C@@]1(c2cccc(C3=C(C)SN(C)C3)c2)C2=CN=NC2NC2=C1C(=O)NC1(CCCC1)C2 (stereo partly drawn) = > 5000 nM

I looked up CCC1(c2cccc(-c3ccncc3F)c2)C2=C(CC(C)(C)NC2=O)NC2N=NC(F)=C21 (stereo not drawn) and its IC50 for Glycogen synthase kinase-3 beta (Homo sapiens) was 100 to 1000 nM

Per the reported Glycogen synthase kinase-3 beta (Homo sapiens) data, CC[C@]1(c2cccc(OC(C)C)c2)C2=CN=NC2NC2=C1C(=O)CC(C)(C)C2 (stereo partly drawn) has IC50 of < 100 nM

* * *

- Experimental system: Glycogen synthase kinase-3 alpha (Homo sapiens)
- Sequence (P49840 whole entry): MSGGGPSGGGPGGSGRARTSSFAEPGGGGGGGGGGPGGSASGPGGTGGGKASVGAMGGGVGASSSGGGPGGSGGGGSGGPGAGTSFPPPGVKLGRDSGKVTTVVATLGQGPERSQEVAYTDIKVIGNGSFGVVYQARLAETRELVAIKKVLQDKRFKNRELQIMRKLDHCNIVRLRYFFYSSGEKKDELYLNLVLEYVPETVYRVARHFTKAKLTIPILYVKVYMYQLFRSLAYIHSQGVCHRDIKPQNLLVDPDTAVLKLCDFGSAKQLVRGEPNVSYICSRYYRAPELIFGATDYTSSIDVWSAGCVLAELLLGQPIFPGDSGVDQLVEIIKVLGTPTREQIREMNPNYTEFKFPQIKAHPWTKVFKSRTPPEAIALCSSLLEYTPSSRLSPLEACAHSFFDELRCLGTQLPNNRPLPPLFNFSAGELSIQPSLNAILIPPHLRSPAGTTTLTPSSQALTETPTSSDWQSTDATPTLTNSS
- Test: TR-FRET Assay
pIC50: −log10 of the molar value.
Assay metric: pIC50

Before answering, review these 2 worked examples.
>>> print(df.to_string())
                                   molecule                       experimental_system  assay_metric  observed
0  Cc1cccc(S(=O)(=O)N2CC[C@]3(C2)C2=C(N=NC2)NC2=C3C(=O)CC(C)(C)C2)c1 [US20250313563, Compound 951864]  Glycogen synthase kinase-3 alpha (Homo sapiens)         pIC50    > 7.00
1  CC1(C)CC(=O)C2=C(C1)NC1=C(CN=N1)C21CCCc2ccccc21 (stereo not drawn) [US20250313563, Compound 913219]  Glycogen synthase kinase-3 alpha (Homo sapiens)         pIC50    > 7.00

Please examine the following record next.
Bench note, Glycogen synthase kinase-3 alpha (Homo sapiens): Cc1cccc(S(=O)(=O)N2CC[C@@]3(C2)C2=C(N=NC2)NC2=C3C(=O)CC(C)(C)C2)c1 [US20250313563, Compound 951863] , pIC50 reads 6.00 to 7.00
